Source: PubChem BioAssay

Consider the following compounds and their measured composite z-score readings.
Molecular target: Streptavidin (Streptomyces avidinii) (UniProt P22629)
Sequence (P22629 whole entry, looked up): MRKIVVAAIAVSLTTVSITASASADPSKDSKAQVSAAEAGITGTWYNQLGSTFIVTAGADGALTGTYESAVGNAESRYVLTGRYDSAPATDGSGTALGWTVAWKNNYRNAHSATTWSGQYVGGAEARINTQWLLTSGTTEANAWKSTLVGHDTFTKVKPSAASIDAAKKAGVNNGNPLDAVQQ
Assay: compounds binding control protein streptavidin – biophysical, small-molecule microarray, 635/667 nm fluorescence, artefact control for SMM compound annotation, primary screen (AID 1147);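 also: signal reflects streptavidin binding to arrayed compounds as a control protein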
Conditions: higher = more signal
Provide a numeric answer; units are not to be included.

Guide cases for composite z-score, answers given:
CC(C)NC(=O)[C@@]1(Cc2ccccc2I)c2ccccc2C(=O)N(Cc2ccccc2Cl)[C@H]1c1ccc(CO)cc1 0.746
C#CCN1[C@@H](Cc2ccc(O)cc2)C(=O)O[C@H](Cc2ccccc2)[C@@H]1/C=C/C1CC1 -0.196
NC(=O)[C@@H]1[C@H]2C(=O)O[C@H](c3ccccc3)[C@H](c3ccccc3)N2[C@H](c2ccc(OCCO)cc2)[C@@]12C(=O)Nc1ccc(C#CC3=CCCCC3)cc12 0.778

Lab note: next compound to report on.
Problem: State recorded composite z-score with Streptavidin (Streptomyces avidinii) (UniProt P22629), entry CCOC(=O)C1=CC[C@@H](c2ccccc2)N(S(=O)(=O)c2ccc(C)cc2)[C@H]1c1ccc(CC)cc1 , no comment.
Result: 1.13

* * *

Assay: resazurin metabolic signal in HepG2 cells – cell-based, resazurin fluorescence, 24 h, PK04 Diversity Set, profiling panel (AID 1172); also: test concentration not given here
Conditions: HepG2 viability, higher = more signal
Output True for records whose z-score is lower than -0.3, False for records at or above -0.3.

Compound	Assigned Label
CC(C)[Si](C#CCCCC#N)(O[C@H](c1ccccc1)c1cn(Cc2cccc(Cl)c2)nn1)C(C)C	False
O=C1O[C@H](c2ccccc2)[C@H](c2ccccc2)N2[C@H]1[C@@H](C(=O)N1CCN(c3ncccn3)CC1)[C@]1(C(=O)Nc3ccc(C#CC4=CCCCC4)cc31)[C@H]2c1ccccc1OCCO	True
CCOc1cc(C(O)C2C=CC3C(=O)N(c4ccccc4)C(=O)C3N2Nc2ccc(C(C)C)cc2)ccc1O (stereo not drawn)	True
COCCOC(=O)N1C(=O)[C@@]2(c3cc(C#CC4(O)CCCCCC4)ccc31)[C@H](C(=O)Nc1nc3ccccc3s1)[C@H]1C(=O)O[C@H](c3ccccc3)[C@H](c3ccccc3)N1[C@@H]2c1ccc(OCCO)cc1	False
CCCCC(O)C1C=CC2C(=O)N(C)C(=O)C2N1N1CCCCC1 (stereo not drawn)	True
O=C1C2C=CC(C(O)COCc3ccccc3)N(Nc3ccc([N+](=O)[O-])cc3)C2C(=O)N1c1ccccc1 (stereo not drawn)	False

Note: attention shifts to another entry.
Problem: Criterion: z-score strictly below -0.3. Is it met by CCCCN1CC=CC23O[C@@H]4C=CCCOC(=O)C4[C@H]2C(=O)N(CCCCCO)[C@@H]3C1=O (stereo partly drawn) ?
Result: True

* * *

Consider the following molecules and their measured composite z-score readings.
Test system: Human papillomavirus type 1a protein E7 (residues 44-93)
Test: small molecules binding HPV E7 44-93 – biochemical, small-molecule microarray, residues 44-93, 635 nm fluorescence, primary screen (AID 1108);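 also: E7 fragment applied at 1 µg/mL in TBST for 1 h at 4 C; score combines spot fluorescence with its signal to noise ratio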
Settings: fluorescence 635 nm, higher = more signal
Provide a numeric answer; units are not to be included.

Guide cases for composite z-score, answers given:
Molecule	composite z-score
C[C@H]1C2[C@H](Cc3ccccc3)NC(=O)[C@]23C(=O)NCC(=O)N2CCC[C@H]2C(=O)NC/C=C/CCC/C=C/C3[C@@H]2O[C@]12C (stereo partly specified)	-0.484
O=C(O)[C@H]1C[C@H]2C(=O)N3CCC[C@H]3C(=O)N2[C@H]1c1ccc(O)cc1	-0.124
C[N+](C)(C)CCCC[C@@H]1NC(=O)[C@@H]2C[C@H](C(=O)NCCCCCN)[C@H](c3ccc(O)cc3)N2C1=O	1.34
[N-]=[N+]=Nc1ccccc1C[C@]1(C(=O)NCC(O)CO)N=C(c2ccc(OCCCO)cc2)O[C@H]1c1ccccc1 (stereo partly specified)	1.45
COC(=O)[C@@]1(Cc2ccccc2)[C@H]2c3cc(C(=O)N4CCCC4)n(Cc4c(CO)[nH]cc(C)c4=O)c3C[C@H]2CN1C(=O)c1ccccc1	-0.596

Problem: // fetch composite z-score given entry COCCCNC(=O)[C@@]1(Cc2ccccc2)N=C(c2ccc(OCCCO)cc2)O[C@H]1c1ccccc1CN=[N+]=[N-]
Result: 0.596

Problem: // fetch composite z-score given entry CC(C)NC(=O)[C@@H]1c2ccccc2C(=O)N(C(C)C)[C@H]1c1ccc(CO)cc1
Result: 1.42

Problem: // fetch composite z-score given entry NC(=O)[C@@]1(Cc2ccccc2)N=C(c2ccc(OCCCO)cc2)O[C@H]1c1ccccc1
Result: -1.02

Problem: // fetch composite z-score given entry C=CCC(OC(C)=O)[C@@H]1[C@@H](N(Cc2ccc(-c3cccc(C(F)(F)F)c3)o2)C(=O)c2cccc3ccccc23)c2cc(OCCCO)ccc2N1C(=O)Cc1ccc2ccccc2c1 (stereo partly specified)
Result: -0.168

* * *

Assay: probe aLefty2 binding to arrayed compounds – biochemical, biotinylated probe, 635/667 nm fluorescence, primary screen (AID 1094);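 also: score merges spot fluorescence near 667 nm with spot signal-to-noise ratio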
Conditions: small-molecule microarray, higher = more signal
Consider the following molecules and their measured composite z-score readings.
Provide a numeric answer; units are not to be included.

Molecule	Observed Measurement
C[N+](C)(C)CCCC[C@@H]1NC(=O)[C@H]2C[C@@H](C(=O)NCCCCCCNC(=O)CS)[C@@H](c3ccc(O)cc3)N2C1=O	-0.17
CC(C)[Si](C#C[Si](C(C)C)(C(C)C)C(C)C)(O[C@H](C)c1cn(Cc2ccccc2)nn1)C(C)C	-0.0936
CC(c1ccccc1)C(O)C1C=CC2C(=O)N(c3ccccc3)C(=O)C2N1Nc1ccccc1 (stereo not drawn)	0.0008
O=C1OCCC=C[C@H]2OC34C=CCN(Cn5nnc6ccccc65)C(=O)[C@H]3N(CCO)C(=O)[C@@H]4C12 (stereo partly drawn)	-0.135
COC(=O)c1c(CC[C@@H](CO)NC(=O)N[C@@H](Cc2ccccc2)Cn2cc(-c3ccccn3)nn2)oc(C(=O)N2CCOCC2)c1C(=O)OC	-0.124
CCCC[C@@H]1C[C@H]1[C@@H](NC(=O)c1cccnc1)c1ccc(Cl)cc1	-0.165

Problem: // fetch composite z-score given entry C#CCN(C/C=C/c1ccccc1)[C@H](CO)c1ccccc1
Result: -0.319

Problem: // fetch composite z-score given entry O=C(CS)NCCCCCNC(=O)[C@@H]1C[C@@H]2C(=O)NCC(=O)N2[C@@H]1c1ccc(O)cc1
Result: -0.124

* * *

Consider the following compounds and their measured composite z-score readings.
System: Neuregulin-1 EGF-like domain
Test: small molecules binding NRG1 EGF domain – biochemical, small-molecule microarray, 635 nm fluorescence, primary screen (AID 1081);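 also: binding of the protein to compounds printed on small-molecule microarray slides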
Conditions: higher = more signal

Guide cases for composite z-score, answers given:
Compound	System Tested	composite z-score
CS(=O)(=O)CCOC(=O)C1=CC(CCCO)=CC(C2CC2)N(Cc2cc3c(cc2Br)OCO3)C=C1C(=O)OCCS(C)(=O)=O (centres undefined)	Neuregulin-1 EGF-like domain	1.2
CC(c1ccccc1)C(O)C1C=CC2C(=O)N(C)C(=O)C2N1NC(=O)OC(C)(C)C (centres undefined)	Neuregulin-1 EGF-like domain	1.17
COCCCNC(=O)[C@]1(Cc2ccccc2)N=C(c2ccc(OCCCO)cc2)O[C@@H]1c1ccccc1CN=[N+]=[N-]	Neuregulin-1 EGF-like domain	0.837

Lab note: next compound to report on.
Problem: // fetch composite z-score given entry COC(=O)C(CC#Cc1ccc2c(c1)[C@]1(C(=O)N2)[C@H](c2ccccc2OCCO)N2[C@H](c3ccccc3)[C@H](c3ccccc3)OC(=O)[C@H]2[C@@H]1C(N)=O)C(=O)OC
Result: 1.32

* * *

Consider the following compounds and their measured z-score readings.
Target: NADPH oxidase 2 (Homo sapiens) (UniProt P04839)
Sequence (P04839 whole entry, looked up): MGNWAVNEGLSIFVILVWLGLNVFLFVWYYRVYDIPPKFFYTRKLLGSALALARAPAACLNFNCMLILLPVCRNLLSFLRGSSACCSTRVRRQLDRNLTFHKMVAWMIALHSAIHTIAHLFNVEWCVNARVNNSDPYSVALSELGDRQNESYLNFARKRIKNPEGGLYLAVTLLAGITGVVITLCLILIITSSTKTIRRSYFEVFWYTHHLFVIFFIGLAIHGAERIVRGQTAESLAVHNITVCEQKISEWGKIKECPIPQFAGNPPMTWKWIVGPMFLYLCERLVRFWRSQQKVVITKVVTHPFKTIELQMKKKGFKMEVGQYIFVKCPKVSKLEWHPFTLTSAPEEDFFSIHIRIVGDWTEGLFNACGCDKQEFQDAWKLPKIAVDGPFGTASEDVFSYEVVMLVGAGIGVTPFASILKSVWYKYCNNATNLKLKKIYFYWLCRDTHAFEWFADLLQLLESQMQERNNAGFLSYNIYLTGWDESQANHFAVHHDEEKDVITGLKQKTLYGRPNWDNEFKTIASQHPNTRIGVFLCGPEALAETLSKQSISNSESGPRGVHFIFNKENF
Assay: compounds shifting NOX2 Amplex Red fluorescence – cell-based, HEK293-NOX2, PMA-stimulated, NOX inhibitor project, primary screen (AID 1159); also: test concentration not given here
Settings: 45 min, higher = more signal, called active from +8 up or from −8 down
Provide a numeric answer; units are not to be included.

Guide cases for z-score, answers given:
Compound	z-score
COCCOC(=O)N1C(=O)[C@@]2(c3cc(C#CCCO)ccc31)[C@H](c1ccc(O)cc1)N1[C@H](c3ccccc3)[C@H](c3ccccc3)OC(=O)[C@H]1[C@@H]2C(=O)N1CCN(c2ncccn2)CC1	1.11
CC(c1ccccc1)C(O)C1C=CC2C(=O)N(C)C(=O)C2N1NC(=O)OC(C)(C)C (centres undefined)	-0.326
CO[C@H]1O[C@H](CO)[C@@H](OC(=O)Nc2ccc(Oc3ccccc3)cc2)[C@H](OC(=O)Nc2ccc3c(c2)OCO3)[C@@H]1OC(=O)Nc1ccc2c(c1)OCO2	1.24
COc1ccc([Si](C)(C)[C@@H]2[C@@H](CCn3cc([C@H](O)c4ccccc4)nn3)O[C@]3(C(=O)N(Cc4cccc(N5CCC5=O)c4)c4ccccc43)[C@H]2C)cc1	0.702
CCCC[C@H]1C[C@@H]1[C@@H]1N(P(=O)(c2ccccc2)c2ccccc2)C[C@@](O)(c2ccccc2)CC12CC2	-0.476
COc1ccc([Si](C)(C)[C@H]2[C@H](CCn3cc([C@H](O)c4ccccc4)nn3)O[C@@]3(C(=O)N(C)c4ccccc43)[C@@H]2C)cc1	-0.0243
N#Cc1ccc(C(O)C2C=CC3C(=O)N(c4ccccc4)C(=O)C3N2Nc2ccccc2F)cc1 (centres undefined)	-1.82
CC(C)[Si](C#CCCCC#N)(O[C@H](c1ccccc1)c1cn(Cc2cccc(Cl)c2)nn1)C(C)C	-6.2

Problem: // fetch z-score given entry C=C(CCCC)/C(=C/C[C@H](OC(C)=O)c1ccc(OCCO)cc1)c1cnc2ccccc2c1
Result: -2.53

Problem: // fetch z-score given entry COCCOC(=O)N1C(=O)[C@@]2(c3ccccc31)[C@H](C(=O)N1CCc3cc(OC)c(OC)cc3C1)[C@H]1C(=O)O[C@H](c3ccccc3)[C@H](c3ccccc3)N1[C@@H]2c1ccc(O)cc1
Result: 0.571

Problem: // fetch z-score given entry O=C1N(CCS(=O)(=O)c2ccccc2)c2ccccc2[C@@H]2OC(c3ccc(OCCCO)cc3)=N[C@]12Cc1ccccc1
Result: -2.55
